- target-of-assay: T1, alcalase (trade name "Alcalase 2.5L", Novozymes) (UniProt P00780)
- T1 sequence (looked up): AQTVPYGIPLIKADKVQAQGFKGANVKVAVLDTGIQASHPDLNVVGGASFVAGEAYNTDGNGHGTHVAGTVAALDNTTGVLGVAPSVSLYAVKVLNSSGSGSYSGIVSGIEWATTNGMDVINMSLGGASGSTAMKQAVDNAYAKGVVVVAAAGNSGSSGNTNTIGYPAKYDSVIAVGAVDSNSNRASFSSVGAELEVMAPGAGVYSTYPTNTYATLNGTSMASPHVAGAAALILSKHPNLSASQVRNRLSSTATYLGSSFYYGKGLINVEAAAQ
- experimental-details: cell-based or functional assay
Please provide measured Protease activity upon dilution (%) immediately after preparation for the entries that follow.
State just the number; it will be interpreted in %.

Recorded Protease activity upon dilution (%) immediately after preparation (binder proteinaceous protease inhibitor of SEQ ID NO:8 (protein) TDTGDHHNQKTEWPELVGKSVEEAKKVILQDKSEAQIVVLPVGTIVTGEYRIDRVRLFVDSLDKIAQVPRVG ): 85

Just so you know, measured Protease activity upon dilution (%) immediately after preparation for proteinaceous protease inhibitor of SEQ ID NO:11 (protein) TDTGDHHNQKTEWPELVGKSVEEAKKVILQDKSEAQIVVLPVGTIVTMEFRIDRVRLFVDSLDKIAQVPRVG came out at 90

// proteinaceous protease inhibitor of SEQ ID NO:22 (protein) TDTGDHHNQKTEWPELVGKSVEEAKKVILQDKSEAQIAVLPVGTIVTMEYAADRVRLFVDSLDKIAQVPRVG : Protease activity upon dilution (%) immediately after preparation value = 82

According to the records, this binder proteinaceous protease inhibitor of SEQ ID NO:29 (protein) TDTGDHHNQKTEWPELVGKSVEEAKKVILQDKSEAQIVVLPVGTIVTMEYRIDRVRLFVDSLDKIAQVPNVG displays Protease activity upon dilution (%) immediately after preparation of 95

Measured Protease activity upon dilution (%) immediately after preparation, proteinaceous protease inhibitor of SEQ ID NO:33 (protein) MSSVEKKPEGVNTGAGDRHNLKTEWPELVGKSVEEAKKVILQDKSEAQIIVLPVGTIVTMEYAIDRVRLFVDKLDNIAQVPRVG : 18
